- Target: NTRK1 (SEQ ID No. 1) recombinant kinase (Homo sapiens)
- Sequence (P04629 with tags, fused parts or gaps): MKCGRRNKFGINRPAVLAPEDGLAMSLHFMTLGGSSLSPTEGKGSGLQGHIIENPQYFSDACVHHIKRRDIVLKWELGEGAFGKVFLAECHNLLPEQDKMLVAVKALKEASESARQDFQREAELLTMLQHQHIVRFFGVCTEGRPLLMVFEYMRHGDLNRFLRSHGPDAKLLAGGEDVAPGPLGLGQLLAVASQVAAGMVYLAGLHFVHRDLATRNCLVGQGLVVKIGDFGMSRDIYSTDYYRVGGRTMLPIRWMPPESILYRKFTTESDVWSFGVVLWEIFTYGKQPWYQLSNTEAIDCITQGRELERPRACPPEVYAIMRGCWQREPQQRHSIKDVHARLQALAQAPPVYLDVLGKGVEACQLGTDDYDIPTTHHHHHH
- Test name: Recombinant NTRK1 kinase assay (ADP production coupled to pyruvate kinase/lactate dehydrogenase)
- Condition notes: recombinant NTRK1 4.7 nM, ATP 1 mM
- From the text: NTRK1 protein sequence used for screening (SEQ ID No. 1)
Measured property: IC50 (nM)

- O=C(Nc1cc(Oc2cc(F)c(NC(=O)C3(C(=O)Nc4ccc(F)cc4)CC3)cc2F)ccn1)C1CC1: 0.71

====

- Target: TPM3-NTRK1 (Homo sapiens, UniProt P04629)
- Construct: chromosomal translocation of the kinase domain of NTRK1, NTRK2, or NTRK3 with a variety of N-terminal fusion partners; TPM3 N-terminal portion (fusion partner, P06753); endogenous in cells; also grown as subcutaneous xenograft in mice; the other entry of the earlier key: TPM3 (P06753, Tropomyosin alpha-3 chain)
- Sequence (P04629 with tags, fused parts or gaps): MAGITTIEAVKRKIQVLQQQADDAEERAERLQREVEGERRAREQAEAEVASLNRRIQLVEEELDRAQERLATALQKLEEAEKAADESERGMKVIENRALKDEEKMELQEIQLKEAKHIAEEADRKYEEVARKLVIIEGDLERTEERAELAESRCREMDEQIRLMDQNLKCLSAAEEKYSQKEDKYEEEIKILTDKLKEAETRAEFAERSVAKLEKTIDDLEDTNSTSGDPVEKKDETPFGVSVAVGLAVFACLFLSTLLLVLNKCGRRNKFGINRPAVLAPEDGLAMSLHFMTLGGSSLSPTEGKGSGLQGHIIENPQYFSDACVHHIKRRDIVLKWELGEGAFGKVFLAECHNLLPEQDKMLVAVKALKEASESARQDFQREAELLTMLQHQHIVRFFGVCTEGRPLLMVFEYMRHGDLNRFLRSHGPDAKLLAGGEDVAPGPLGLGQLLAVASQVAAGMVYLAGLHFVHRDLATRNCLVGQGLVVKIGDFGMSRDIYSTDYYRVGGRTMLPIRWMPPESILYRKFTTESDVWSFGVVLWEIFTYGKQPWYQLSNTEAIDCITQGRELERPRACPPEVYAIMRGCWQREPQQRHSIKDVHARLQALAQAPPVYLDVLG
- Test name: KM-12 phospho-NTRK1 Western blot
- Condition notes: KM-12 cells, 4 h compound; read-out: IC50, inhibition of TPM3-NTRK1 phosphorylation
pIC50: −log10 of the molar value.
Measured property: pIC50

• O=C(Nc1cc(Oc2cc(F)c(NC(=O)C3(C(=O)Nc4ccc(F)cc4)CC3)cc2F)ccn1)C1CC1 = 8.85
